The reader will find IC50 measurements below, all made with mTOR kinase (Homo sapiens).
Sequence (P42345 1362-2549 limits assumed): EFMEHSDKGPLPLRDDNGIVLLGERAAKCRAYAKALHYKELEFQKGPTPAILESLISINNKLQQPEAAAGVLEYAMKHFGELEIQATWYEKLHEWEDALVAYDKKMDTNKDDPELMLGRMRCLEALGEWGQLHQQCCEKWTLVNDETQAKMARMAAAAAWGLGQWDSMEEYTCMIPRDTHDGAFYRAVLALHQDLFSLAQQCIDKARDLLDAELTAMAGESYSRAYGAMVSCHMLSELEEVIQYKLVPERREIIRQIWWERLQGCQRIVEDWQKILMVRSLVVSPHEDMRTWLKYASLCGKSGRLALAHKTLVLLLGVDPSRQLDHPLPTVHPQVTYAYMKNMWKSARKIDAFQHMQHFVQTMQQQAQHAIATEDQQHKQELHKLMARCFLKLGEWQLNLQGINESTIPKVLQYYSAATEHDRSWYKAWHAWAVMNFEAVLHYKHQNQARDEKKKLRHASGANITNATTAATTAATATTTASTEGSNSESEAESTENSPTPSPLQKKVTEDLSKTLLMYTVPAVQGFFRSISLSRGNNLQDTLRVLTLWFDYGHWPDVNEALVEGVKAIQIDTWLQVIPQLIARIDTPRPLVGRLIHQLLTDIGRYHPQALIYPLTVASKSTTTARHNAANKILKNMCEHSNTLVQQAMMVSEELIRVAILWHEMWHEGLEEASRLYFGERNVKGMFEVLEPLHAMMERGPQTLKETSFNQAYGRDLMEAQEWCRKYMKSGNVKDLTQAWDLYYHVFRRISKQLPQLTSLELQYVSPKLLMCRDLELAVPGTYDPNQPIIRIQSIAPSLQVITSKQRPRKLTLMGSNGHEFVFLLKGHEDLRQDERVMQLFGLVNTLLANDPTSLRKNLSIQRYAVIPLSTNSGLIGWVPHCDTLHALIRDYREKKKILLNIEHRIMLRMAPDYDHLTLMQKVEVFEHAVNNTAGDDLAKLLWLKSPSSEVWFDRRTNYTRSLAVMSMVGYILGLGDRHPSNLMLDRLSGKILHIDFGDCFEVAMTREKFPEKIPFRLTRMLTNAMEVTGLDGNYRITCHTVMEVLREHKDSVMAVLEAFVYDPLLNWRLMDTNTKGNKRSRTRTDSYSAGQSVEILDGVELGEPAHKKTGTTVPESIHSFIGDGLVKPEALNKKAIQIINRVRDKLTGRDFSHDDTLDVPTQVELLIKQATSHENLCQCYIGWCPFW
Measurement Type: IC50

- C[C@@H]1COCCN1c1nc(-c2cnc(N)c(F)c2)nc2c(OCCF)cc(-c3cccc(NS(=O)(=O)CCCF)c3F)cc12: 100 to 1000 nM
- COCCOc1cc(-c2cccc(NS(=O)(=O)CCCF)c2F)cc2c(N3CCOCC3)nc(-c3cnc(N)nc3)nc12: 1 to 100 nM
- COc1cc(-c2c(F)ccc(NS(=O)(=O)CCCF)c2F)cc2c(N3CCOCC3)nc(-c3cnc4[nH]ccc4c3)nc12: 100 to 1000 nM
- CCCS(=O)(=O)Nc1cccc(-c2ccc3nc(-c4ccc(N)nc4)nc(N4CCOCC4)c3n2)c1F: 1 to 100 nM
